# test system: T1, his-tagged B7-H3 (UniProt Q5ZPR3-2 29-245, limits assumed)
# T1 construct: also called CD276; not shown: His tag
# T1 sequence (looked up): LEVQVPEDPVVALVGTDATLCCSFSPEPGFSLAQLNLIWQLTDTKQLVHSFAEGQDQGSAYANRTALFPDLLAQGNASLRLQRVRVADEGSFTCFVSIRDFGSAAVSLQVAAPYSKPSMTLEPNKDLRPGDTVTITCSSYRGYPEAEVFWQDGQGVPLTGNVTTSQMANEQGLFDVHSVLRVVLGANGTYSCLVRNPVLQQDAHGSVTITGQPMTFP
# procedure summary: SPR, Carterra LSA; binder captured by anti-human Fc, his-tagged B7-H3 injected
Recorded kon values for a group of binders are listed next.
Use M⁻¹ s⁻¹ as the unit, but write only the number.

[
  {
    "binder": "40633p1.1.A6 scFv-Fc (scFv, V domains shown) VH: EVQLLESGGGLVQPGGSLRLSCAASGFSFSNYDMSWVRQAPGKGLEWVAGIRSGSRTYYADSVKGRFTISRDNSKNTLYLQMNSLRAEDTATYYCGRYFNMDVWGQGTTVTVSS VL: QSVLTQPPSASGTPGQRVTISCSGSTFNIGTNLVHWYQQLPGTAPKLLIYLTDRRPSGVPDRFSGSKSGTSASLAISGLQSEDEANYYCATWDDSLNSFLFGGGTKLTVL",
    "kon / M⁻¹ s⁻¹": 166000
  },
  {
    "binder": "40633p1.1.B3 scFv-Fc (scFv, V domains shown, Tested as scFv-Fc supernatant) VH: EVQLLESGGGLVQPGGSLRLSCAASGFTVSYYGMSWVRQAPGKGLEWVSAIKQDGSEKYYADSVKGRFTISRDNSKNTLYLQMNSLRAEDTAVYYCARHWNDYSNAMNVWGQGTTVTVSS VL: QSVLTQPPSASGTPGQRVTISCSGSTSNIGRESVYWYQQLPGTAPKLLIYTIDQRPSGVPDRFSGSKSGTSASLAISGLQSEDEADYYCGTWDDSLNAWVFGGGTKLTVL",
    "kon / M⁻¹ s⁻¹": 360000
  },
  {
    "binder": "40633p1.1.G5 scFv-Fc (scFv, V domains shown, Tested as scFv-Fc supernatant) VH: EVQLLESGGGLVQPGGSLRLSCAASGFIVNYYGMSWVRQPPGKGLEWVSAIKQDGSEKYYADSVKGRFTISRDNSKTTLYLQMNSLRAEDTAVYYCARHWNDYSNGMNVWGQGTTVTVSS VL: QSVLTQPPSASGTPGQRVTISCSGSWSNIGSYNSHWYQKLPGTAPKLLIYTTDRRPSGVPDRFSGSKSGTSASLAISGLQSEDEADYYCGTWDDSLNVWVFGGGTKLTVL",
    "kon / M⁻¹ s⁻¹": 141000
  },
  {
    "binder": "40633p1.1.D11 scFv-Fc (scFv, V domains shown, Tested as scFv-Fc supernatant) VH: EVQLLESGGGLVQPGGSLRLSCAASGFTFRSYAMSWVRQAPGKGLEWVAYIGSSGGTTYYADSVKGRFTISRDNSKNTLYLQMNSLRAEDTAVYYCVKESYYYMDVWGQGTTVTVSS VL: QSVLTQPPSASGTPGQRVTISCSATISNIDINRVSWYQQLPGTAPKLLIFNSQRPSGVPDRFSGSKSGTSASLAISGLQSEDEADYYCATWDDSLNSWVFGGGTKLTVL",
    "kon / M⁻¹ s⁻¹": 277000
  },
  {
    "binder": "40511p1.1.D6 scFv-Fc (scFv, V domains shown, Tested as scFv-Fc supernatant) VH: DVQLVESGGGVVRPGESLTLSCAASGFTINSYAVSWVRQAPGEGLEWVSGISGSGVRYYADSVKGRFTISRDNSNNTLYLQMNSLRAEDTAVYYCARSNKVTWNNFFDYWGLGTLVTVSS VL: EVVLTQSPGTLTLSPGERATLSCRASRSILTSLAWYQQKPGQAPRLLIYNTVTRATGIPARFSGSGSGTEFTLTINSLQSEDFAVYYCQQYYDWPPLTFGGGTKVEIK",
    "kon / M⁻¹ s⁻¹": 669000
  },
  {
    "binder": "40511p1.1.G3 scFv-Fc (scFv, V domains shown, Tested as scFv-Fc supernatant) VH: DVQLVESGGGVVRPGESLTLSCAASGFTINSYAVSWVRQAPGEGLEWVSGISGSGVRYYADSVKGRFTISRDDSNNTLYLQMNSLRAEDTAVYYCARSNKVTWNNFFDYWGLGTLVTVSS VL: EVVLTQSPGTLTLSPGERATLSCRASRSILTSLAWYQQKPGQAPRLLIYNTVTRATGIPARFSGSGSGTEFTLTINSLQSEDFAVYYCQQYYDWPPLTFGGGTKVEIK",
    "kon / M⁻¹ s⁻¹": 494000
  }
]

Problem: // returns reported kon for input 40511p1.1.D3 scFv-Fc (scFv, V domains shown) VH: DVQLVESGGGVVRPGGSLRLSCAASGFTFRSYGMNWVRQAPGEGLEWVSRMSSGGGAYYADSVKGRFTISRDNSKNTLYLQMNSLRAEDTAVYYCARNSRDFFFDQWGLGTLVTVSS VL: ETVLTQSPGTLSLSPGERATLSCRASQSVNSKLAWYQQKPGQAPRLLIYGASSRATGIPARFSGSGSGTEFTLTISSLQTEDFAVYYCQQYSDWPPLTFGGGTKVEIK
Solution: 109000

Problem: // returns reported kon for input 40511p1.1.H10 scFv-Fc (scFv, V domains shown) VH: DVQLVESGGGVVRPGESLRLSCAASGFTFSNYAMNWVRQAPGEGLEWVSRINYKGYNITYYADSVKGRFTISRDNSKNTLYLQMNSLRAEDTAVYYCAKSGSNSNNFFDYWGLGTLVTVSS VL: EIVLTQSPGNLSLSPGERATLSCRASQSVGSQLGWYQQKPGQAPRLLIYGASTRATGIPDRFSGSGSGTEFALTISSLQSEDFAVYYCQQYYDWPPLTFGGGTKVEIK
Solution: 752000

Problem: // returns reported kon for input 40579p1.H6 scFv-Fc (scFv, V domains shown) VH: EVQLLESGGGLVQPGGSLRLSCAASGFTVNNAWMSWVRQAPGKGLEWVSAISYGGSIYYADSVKGRFTISRDNSKNTLYLQMNSLRAEDTAVYYCAKHRSTTYNGMDVWGQGTTVTVSS VL: EIVLTQSPGTLSLSPGERATLSCRASQSVGSFLAWYQQKPGQAPRLLIYGANTRAAGIPDRFRGSGNGTDFTLTISSLQSEDFAVYYCQQYYDWPPLTFGGGTKVEIK
Solution: 252000

Problem: // returns reported kon for input 40633p1.2.E1 scFv-Fc (scFv, V domains shown, Tested as scFv-Fc supernatant) VH: EVQLLESGRGLVQPGGSLRLSCAASGFTVSYYGMSWVRQAPGKGLEWVSVIKQDGSEEYYADSVKGRFTISRDNSKNTLYLQMNSLRAEDTAVYYCARHWNDYSNGMNVWGQGTTVTVSS VL: QSVLTQPPSASGTPGQRVTISCSGSTSNVGDRYVYWYQQLPGTAPKLLIYLDDQRPSGVPDRFSGSKSGTSASLAISGLQSEDEADYYCASWDASLNGWVFGGGTKLTVL
Solution: 124000
